assayed_system: Histamine H1 receptor (Cavia porcellus, UniProt P31389)
Sequence (P31389 whole entry): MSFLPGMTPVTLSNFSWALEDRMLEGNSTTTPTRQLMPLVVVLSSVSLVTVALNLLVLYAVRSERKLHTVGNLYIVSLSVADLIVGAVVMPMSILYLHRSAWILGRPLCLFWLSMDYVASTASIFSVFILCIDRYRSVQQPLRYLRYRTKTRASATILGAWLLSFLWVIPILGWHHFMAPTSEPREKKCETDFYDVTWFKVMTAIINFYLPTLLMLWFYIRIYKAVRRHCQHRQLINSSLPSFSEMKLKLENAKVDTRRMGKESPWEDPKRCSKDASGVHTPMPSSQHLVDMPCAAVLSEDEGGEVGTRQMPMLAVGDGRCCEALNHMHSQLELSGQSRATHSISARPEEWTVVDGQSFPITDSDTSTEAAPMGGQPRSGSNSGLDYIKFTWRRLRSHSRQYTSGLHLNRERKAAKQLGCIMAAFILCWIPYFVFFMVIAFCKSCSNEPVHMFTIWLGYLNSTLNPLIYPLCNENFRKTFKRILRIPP
measured_parameter: Ki

>>> measured_result("Nc1nc2c(ncn2[C@@H]2O[C@H](COP(=O)(O)OP(=O)(O)OP(=O)(O)O)C(O)C2O)c(=O)[nH]1 (stereo partly specified) [+ 1 mM GTP]")
"> 10 µM"
